tested on: Neutrophil; test: Immunomodulatory activity in human neutrophils infected with bacteria assessed as increase in bacterial killing by measuring reduced NBT incubated for 30 mins by NBT dye based spectrophotometry; assay type: functional; parameters: concentration or dose not given beside the values; conditions: 0.5 h
measured quantity: Activity (%)

> print(dat)
                                   molecule  measured.quantity  numeric.value
1  CCOC(=O)C1=C(N)OC(c2ccccc2)=C(C(=O)OCC)C12C(=O)Nc1ccc(S(=O)(=O)N3CCCCC3)cc12 (centres undefined)           Activity          139.3
2  CC(=O)C1=C(c2ccccc2)OC(N)=C(C#N)C12C(=O)Nc1ccc(S(=O)(=O)N3CCOCC3)cc12 (centres undefined)           Activity          123.5
3  CCOC(=O)/C(C#N)=C1\C(=O)Nc2ccc(S(=O)(=O)N3CCOCC3)cc21           Activity          152.3
4  CCOC(=O)C1=C(N)OC(C)=C(C(C)=O)C12C(=O)Nc1ccc(S(=O)(=O)N3CCOCC3)cc12 (centres undefined)           Activity          136.7
5  N#CC(C#N)=C1C(=O)Nc2ccc(S(=O)(=O)N3CCOCC3)cc21           Activity          145.7
6  CCOC(=O)C1=C(c2ccccc2)OC(N)=C(C#N)C12C(=O)Nc1ccc(S(=O)(=O)N3CCCCC3)cc12 (centres undefined)           Activity           95.4
7  CC(=O)C1=C(c2ccccc2)OC(N)=C(C#N)C12C(=O)Nc1ccc(S(=O)(=O)N3CCCCC3)cc12 (centres undefined)           Activity            972
8  CC(=O)C1=C(C)OC(N)=C(C#N)C12C(=O)Nc1ccc(S(=O)(=O)N3CCOCC3)cc12 (centres undefined)           Activity          112.9
9  CCOC(=O)C1=C(N)OC(c2ccccc2)=C(C(C)=O)C12C(=O)Nc1ccc(S(=O)(=O)N3CCOCC3)cc12 (centres undefined)           Activity           95.6

====

Listed compounds paired with reported zone of inhibition at 500 µg/mL
system: Candida albicans; experiment: Antifungal activity against Candida albicans ATCC 10231 assessed as diameter of inhibition zone at 0.5 mg/ml incubated for 24 hrs by agar diffusion method; type: functional; settings: read-out: DIZ
measured quantity: zone of inhibition at 500 µg/mL

> print(dat)
                                   compound                measured.quantity  result
1  CCOC(=O)C1=C(N)OC(C)=C(C(C)=O)C12C(=O)Nc1ccc(S(=O)(=O)N3CCOCC3)cc12 (stereo not given)  zone of inhibition at 500 µg/mL   20 mm
2  N#CC(C#N)=C1C(=O)Nc2ccc(S(=O)(=O)N3CCOCC3)cc21  zone of inhibition at 500 µg/mL   22 mm
3  CCOC(=O)/C(C#N)=C1\C(=O)Nc2ccc(S(=O)(=O)N3CCCCC3)cc21  zone of inhibition at 500 µg/mL   16 mm
4  CC(=O)C1=C(C)OC(N)=C(C#N)C12C(=O)Nc1ccc(S(=O)(=O)N3CCCCC3)cc12 (stereo not given)  zone of inhibition at 500 µg/mL   16 mm
5  CCOC(=O)C1=C(c2ccccc2)OC(N)=C(C#N)C12C(=O)Nc1ccc(S(=O)(=O)N3CCCCC3)cc12 (stereo not given)  zone of inhibition at 500 µg/mL   22 mm

====

Listed molecules paired with reported zone of inhibition at 500 µg/mL
system: Aspergillus brasiliensis; test: Antifungal activity against Aspergillus brasiliensis ATCC 16404 assessed as diameter of inhibition zone at 0.5 mg/ml incubated for 72 hrs by agar diffusion method; assay type: functional; conditions: read-out: DIZ
measured quantity: zone of inhibition at 500 µg/mL (mm)

> print(dat)
                                   molecule  unit.label  numeric.value
1  CC(=O)C1=C(C)OC(N)=C(C#N)C12C(=O)Nc1ccc(S(=O)(=O)N3CCOCC3)cc12 (centres undefined)          mm             14
2  CCOC(=O)C1=C(N)OC(C)=C(C(C)=O)C12C(=O)Nc1ccc(S(=O)(=O)N3CCOCC3)cc12 (centres undefined)          mm             16
3  N#CC(C#N)=C1C(=O)Nc2ccc(S(=O)(=O)N3CCCCC3)cc21          mm             16
4  CCOC(=O)/C(C#N)=C1\C(=O)Nc2ccc(S(=O)(=O)N3CCCCC3)cc21          mm             15
5  CCOC(=O)C1=C(N)OC(c2ccccc2)=C(C(C)=O)C12C(=O)Nc1ccc(S(=O)(=O)N3CCOCC3)cc12 (centres undefined)          mm             21
6  CCOC(=O)C1=C(c2ccccc2)OC(N)=C(C#N)C12C(=O)Nc1ccc(S(=O)(=O)N3CCOCC3)cc12 (centres undefined)          mm             12
7  N#CC(C#N)=C1C(=O)Nc2ccc(S(=O)(=O)N3CCOCC3)cc21          mm             19
8  CC(=O)C1=C(c2ccccc2)OC(N)=C(C#N)C12C(=O)Nc1ccc(S(=O)(=O)N3CCCCC3)cc12 (centres undefined)          mm             19
9  CCOC(=O)C1=C(N)OC(c2ccccc2)=C(C(=O)OCC)C12C(=O)Nc1ccc(S(=O)(=O)N3CCOCC3)cc12 (centres undefined)          mm              9

====

test system: Staphylococcus aureus; experiment: Antibacterial activity against multidrug resistant Staphylococcus aureus ATCC 33591 assessed as reduction in bacterial growth incubated for 1 day by paper disk diffusion method; assay type: functional; settings: ATCC 33591, 24 h
measured quantity: MIC

> print(dat)
                                    compound                 system  measured.quantity      result
 1  N#CC(C#N)=C1C(=O)Nc2ccc(S(=O)(=O)N3CCOCC3)cc21  Staphylococcus aureus                MIC  4.44 µg/mL
 2  CCOC(=O)C1=C(N)OC(c2ccccc2)=C(C(C)=O)C12C(=O)Nc1ccc(S(=O)(=O)N3CCOCC3)cc12 (stereo not given)  Staphylococcus aureus                MIC   3.9 µg/mL
 3  CCn1cc(C(=O)O)c(=O)c2cc(F)c(N3CCNCC3)cc21 [NORFLOXACIN]  Staphylococcus aureus                MIC  0.78 µg/mL
 4  CCOC(=O)C1=C(N)OC(C)=C(C(C)=O)C12C(=O)Nc1ccc(S(=O)(=O)N3CCOCC3)cc12 (stereo not given)  Staphylococcus aureus                MIC   3.9 µg/mL
 5  CCOC(=O)C1=C(c2ccccc2)OC(N)=C(C#N)C12C(=O)Nc1ccc(S(=O)(=O)N3CCCCC3)cc12 (stereo not given)  Staphylococcus aureus                MIC  1.95 µg/mL
 6  CC(=O)C1=C(c2ccccc2)OC(N)=C(C#N)C12C(=O)Nc1ccc(S(=O)(=O)N3CCCCC3)cc12 (stereo not given)  Staphylococcus aureus                MIC  0.78 µg/mL
 7  CCOC(=O)/C(C#N)=C1\C(=O)Nc2ccc(S(=O)(=O)N3CCOCC3)cc21  Staphylococcus aureus                MIC  1.95 µg/mL
 8  CC(=O)C1=C(c2ccccc2)OC(N)=C(C#N)C12C(=O)Nc1ccc(S(=O)(=O)N3CCOCC3)cc12 (stereo not given)  Staphylococcus aureus                MIC  0.97 µg/mL
 9  CC(=O)C1=C(C)OC(N)=C(C#N)C12C(=O)Nc1ccc(S(=O)(=O)N3CCOCC3)cc12 (stereo not given)  Staphylococcus aureus                MIC  7.81 µg/mL
10  CCOC(=O)C1=C(N)OC(c2ccccc2)=C(C(=O)OCC)C12C(=O)Nc1ccc(S(=O)(=O)N3CCCCC3)cc12 (stereo not given)  Staphylococcus aureus                MIC  6.25 µg/mL

====

molecular target: DNA gyrase (Staphylococcus aureus, UniProt P0A0K8+P20831); assay: Inhibition of Staphylococcus aureus DNA gyrase using relaxed pBR322 DNA as substrate incubated for 45 mins by agarose gel electrophoresis method
Sequence (P0A0K8 whole entry): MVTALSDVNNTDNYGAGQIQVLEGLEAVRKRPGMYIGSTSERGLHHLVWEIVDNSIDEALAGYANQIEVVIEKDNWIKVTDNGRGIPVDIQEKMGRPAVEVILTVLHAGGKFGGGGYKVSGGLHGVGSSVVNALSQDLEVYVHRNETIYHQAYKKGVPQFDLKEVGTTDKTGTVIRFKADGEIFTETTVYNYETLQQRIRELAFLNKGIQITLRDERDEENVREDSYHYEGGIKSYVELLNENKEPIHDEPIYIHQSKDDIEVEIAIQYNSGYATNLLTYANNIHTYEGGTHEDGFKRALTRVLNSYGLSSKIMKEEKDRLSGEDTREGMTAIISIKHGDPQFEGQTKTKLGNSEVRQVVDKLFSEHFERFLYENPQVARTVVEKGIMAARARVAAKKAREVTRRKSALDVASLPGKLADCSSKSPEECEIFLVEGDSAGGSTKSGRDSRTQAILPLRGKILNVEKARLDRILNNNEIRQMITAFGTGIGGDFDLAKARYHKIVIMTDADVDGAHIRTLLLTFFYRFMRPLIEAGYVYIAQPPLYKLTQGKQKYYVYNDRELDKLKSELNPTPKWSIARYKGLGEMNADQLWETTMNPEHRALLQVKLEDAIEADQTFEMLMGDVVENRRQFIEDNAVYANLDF
Sequence (P20831 whole entry): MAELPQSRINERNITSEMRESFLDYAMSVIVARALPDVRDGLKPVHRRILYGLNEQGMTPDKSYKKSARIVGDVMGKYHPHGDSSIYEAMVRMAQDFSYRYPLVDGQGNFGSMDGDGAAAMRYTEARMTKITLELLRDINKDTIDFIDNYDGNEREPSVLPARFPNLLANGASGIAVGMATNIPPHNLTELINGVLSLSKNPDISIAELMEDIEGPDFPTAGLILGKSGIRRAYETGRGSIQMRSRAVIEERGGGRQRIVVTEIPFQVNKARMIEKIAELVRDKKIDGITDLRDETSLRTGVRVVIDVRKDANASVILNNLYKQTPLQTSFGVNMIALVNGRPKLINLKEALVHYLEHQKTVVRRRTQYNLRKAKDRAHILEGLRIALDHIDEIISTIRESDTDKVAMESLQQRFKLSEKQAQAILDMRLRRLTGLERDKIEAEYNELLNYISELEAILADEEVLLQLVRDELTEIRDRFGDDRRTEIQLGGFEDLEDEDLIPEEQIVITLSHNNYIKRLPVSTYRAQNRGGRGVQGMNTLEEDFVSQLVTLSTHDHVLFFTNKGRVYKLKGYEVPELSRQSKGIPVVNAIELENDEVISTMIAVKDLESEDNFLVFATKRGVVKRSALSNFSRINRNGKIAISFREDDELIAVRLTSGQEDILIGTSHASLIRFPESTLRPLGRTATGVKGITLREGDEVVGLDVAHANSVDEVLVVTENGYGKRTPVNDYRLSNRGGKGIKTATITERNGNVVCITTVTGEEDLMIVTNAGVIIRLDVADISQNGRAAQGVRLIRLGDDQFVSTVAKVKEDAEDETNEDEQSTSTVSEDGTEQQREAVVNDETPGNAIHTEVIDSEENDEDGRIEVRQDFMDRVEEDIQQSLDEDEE
pIC50: −log10 of the molar value.
Listed compounds paired with reported pIC50
measured quantity: pIC50

> print(dat)
                                   compound                                    system  measured.quantity  numeric.value
1  CCOC(=O)C1=C(c2ccccc2)OC(N)=C(C#N)C12C(=O)Nc1ccc(S(=O)(=O)N3CCCCC3)cc12 (centres undefined)  DNA gyrase (Staphylococcus aureus, UniProt P0A0K8+P20831)              pIC50           4.70
2  CCOC(=O)/C(C#N)=C1\C(=O)Nc2ccc(S(=O)(=O)N3CCOCC3)cc21  DNA gyrase (Staphylococcus aureus, UniProt P0A0K8+P20831)              pIC50           4.57
3  CC(=O)C1=C(c2ccccc2)OC(N)=C(C#N)C12C(=O)Nc1ccc(S(=O)(=O)N3CCCCC3)cc12 (centres undefined)  DNA gyrase (Staphylococcus aureus, UniProt P0A0K8+P20831)              pIC50           4.74
4  CCOC(=O)C1=C(N)OC(C)=C(C(C)=O)C12C(=O)Nc1ccc(S(=O)(=O)N3CCOCC3)cc12 (centres undefined)  DNA gyrase (Staphylococcus aureus, UniProt P0A0K8+P20831)              pIC50           4.60
5  CC(=O)C1=C(c2ccccc2)OC(N)=C(C#N)C12C(=O)Nc1ccc(S(=O)(=O)N3CCOCC3)cc12 (centres undefined)  DNA gyrase (Staphylococcus aureus, UniProt P0A0K8+P20831)              pIC50           4.60
6  CCOC(=O)C1=C(N)OC(c2ccccc2)=C(C(=O)OCC)C12C(=O)Nc1ccc(S(=O)(=O)N3CCCCC3)cc12 (centres undefined)  DNA gyrase (Staphylococcus aureus, UniProt P0A0K8+P20831)              pIC50           4.64
7  CC(=O)C1=C(C)OC(N)=C(C#N)C12C(=O)Nc1ccc(S(=O)(=O)N3CCOCC3)cc12 (centres undefined)  DNA gyrase (Staphylococcus aureus, UniProt P0A0K8+P20831)              pIC50           4.60
8  N#CC(C#N)=C1C(=O)Nc2ccc(S(=O)(=O)N3CCOCC3)cc21  DNA gyrase (Staphylococcus aureus, UniProt P0A0K8+P20831)              pIC50           4.58
9  CCOC(=O)C1=C(N)OC(c2ccccc2)=C(C(C)=O)C12C(=O)Nc1ccc(S(=O)(=O)N3CCOCC3)cc12 (centres undefined)  DNA gyrase (Staphylococcus aureus, UniProt P0A0K8+P20831)              pIC50           4.70
